System: acyl-CoA dehydrogenases
Experiment: In vitro acyl-CoA dehydrogenase ferrocenium assay with C. tyrobutyricum cell-free extract
Type: biochemical
Details: 0.5 to 10 mM compound; rate of ferrocenium reduction at 300 nm
API: label(entry) gives 1 if the entry's Dose-Response Slope is strictly smaller than 6; on equality or larger values it gives 0.

// known answers, use as guide
CCOC(=O)/C(C)=C/C(F)(F)F [F, ethyl-2-methyl-4,4,4-trifluorocrotonate, reference compound]: 1
COc1ccc(C(N)=O)cc1C(F)(F)F [3-Trifluoromethyl-4-methoxybenzamide]: 0
NC(=O)c1ccc(F)c(C(F)(F)F)c1 [3-Trifluoromethyl-4-fluorobenzamide]: 1
CCOC(=O)c1cccc(C(F)(F)F)c1 [Ethyl 3-trifluormethylbenzoate]: 0
CCOC(=O)/C=C(\N)C(F)(F)F [B, ethyl-3-amino-4,4,4-trifluorocrotonate]: 0

(Q) Threshold test, Dose-Response Slope < 6: NC(=O)/C=C/C(F)(F)F [Compound C-4, 4,4,4-Trifluorocrotonamide]
(A) 0

(Q) Consider the molecule CCOC(=O)c1ccccc1C(F)(F)F [Ethyl 2-(trifluoromethyl)benzoate] . Is its Dose-Response Slope strictly less than 6?
(A) 0

---

Catalogue of compounds with associated Dose-Response Slope
Tested on: acyl-CoA dehydrogenases
Test: In vitro acyl-CoA dehydrogenase ferrocenium assay with C. tyrobutyricum cell-free extract
Assay type: biochemical
Conditions: 0.5 to 10 mM compound; rate of ferrocenium reduction at 300 nm
Write the value as a bare number.

(Q) Report Dose-Response Slope from acyl-CoA dehydrogenases testing of CCOC(=O)/C=C/C(F)(F)F [E, ethyl 4,4,4-trifluorocrotonate]
(A) 6

(Q) Param request: Dose-Response Slope | system acyl-CoA dehydrogenases | item C/C=C/C(=O)OC(C)(C)C [C, Tert-butyl crotonate, reference compound]
(A) 6

(Q) Fetch value of Dose-Response Slope on acyl-CoA dehydrogenases for O=C(O)c1cccc(C(F)(F)F)c1 [3-(Trifluoromethyl)benzoate] .
(A) 6
